Numbers sourced from patent US20240382586A1.

biological target: SARS-CoV-2 spike, variant N501Y (B.1.1.7, British) (on virus or pseudovirus) (SARS-CoV-2, UniProt P0DTC2 14-1273); assay: cell-based or functional assay
Experimental Readout: IC50 (ng/ml), pseudovirus neutralisation, British B1.1.7 (ng/mL)
Write the value in ng/mL as a bare number.

*Q* I have this binder here, 9-2H7-D7 chimera (antibody, V domains shown) VH: EVQLQQSGPELVKPGASVTISCKTSGYTFTEYTMYWVKQSHGKSLEWIGGINPYIGDTSYNQNFKGKATLTVDKSSSTAYMELRSLTSEDSAVYYCARDGYPDYSAMDFWGQGTSVTVSS VL: DIVMSQSPSSLAVSVGEKVTMNCKSSQNLLYSSNQKNYLAWYQQKPGQSPKLLIYWASTRESGVPDRFTGSGSGTDFTLTISSVKAEDLAVYSCQQYYTYPWTFGGGTKLEIK , and I need its recorded IC50 (ng/ml), pseudovirus neutralisation, British B1.1.7.
*A* 11
